- SYSTEM UNDER TEST: T1, human CD3 on T-cell lines (CD3-expressing Jurkat cells; HUT78 cells) (human, UniProt P07766 23-207)
- T1 construct: On cells it stands in the CD3/TCR complex
- T1 sequence (P07766 23-207 limits assumed): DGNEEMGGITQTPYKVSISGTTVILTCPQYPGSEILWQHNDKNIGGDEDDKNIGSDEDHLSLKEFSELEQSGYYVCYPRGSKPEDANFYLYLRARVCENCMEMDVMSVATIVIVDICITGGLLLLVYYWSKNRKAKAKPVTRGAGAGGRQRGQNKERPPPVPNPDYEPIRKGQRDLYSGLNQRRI
- PROTOCOL DETAILS: flow cytometry, HUT78 cells
MEASURE: pKd
Reminder that pKd means the negative base-10 logarithm of the concentration expressed in mol/L.

Example binders with recorded pKd:
[[record]]
binder = "2037-B10_Hc-S107D (antibody, human IgG1, lambda, V domains shown, human IgG1, lambda; also called SRP 2037 S107D; 2037-B10_VH-S107D) VH: EVQLVESGGGLVKPGGSLRLSCAASGFTFNKYAMNWVRQAPGKGLEWVARIRTKYNNYATYYADSVKDRFTISRDDSKNTAYLQMNSLKTEDTAVYYCVRHGNFGNDYISYWAYWGQGTPVTVSS VL: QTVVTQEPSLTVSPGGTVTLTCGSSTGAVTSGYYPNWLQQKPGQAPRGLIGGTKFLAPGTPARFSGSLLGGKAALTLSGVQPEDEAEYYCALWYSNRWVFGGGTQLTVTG"
endpoint_result = 7.81

[[record]]
binder = "SRP 2037-B10 Y55D/LC5 (antibody, human IgG1, kappa, V domains shown, human IgG1, kappa) VH: EVQLVESGGGLVKPGGSLRLSCAASGFTFNKYAMNWVRQAPGKGLEWVARIRTKDNNYATYYADSVKDRFTISRDDSKNTAYLQMNSLKTEDTAVYYCVRHGNFGNSYISYWAYWGQGTPVTVSS VL: DTQVTQSPSLSASVGDRVTITCGSSTGAVTSGYYPNWLQQKPGQAPRGLIGGTKFLAPGVPSRFSGSGSGTDFTLTISSLQPEDFATYYCALWYSNRWVFGGGTKVEIKR"
endpoint_result = 6.76


INPUT: Need pKd of SRP 2037-B10 Y61D/R97D (antibody, human IgG1, lambda, V domains shown, human IgG1, lambda) VH: EVQLVESGGGLVKPGGSLRLSCAASGFTFNKYAMNWVRQAPGKGLEWVARIRTKYNNYATDYADSVKDRFTISRDDSKNTAYLQMNSLKTEDTAVYYCVRHGNFGNSYISYWAYWGQGTPVTVSS VL: QTVVTQEPSLTVSPGGTVTLTCGSSTGAVTSGYYPNWLQQKPGQAPRGLIGGTKFLAPGTPARFSGSLLGGKAALTLSGVQPEDEAEYYCALWYSNDWVFGGGTQLTVTG , thanks.
OUTPUT: 6.92
